systemUnderTest: BRM (Homo sapiens)
Sequence (P51531 whole entry): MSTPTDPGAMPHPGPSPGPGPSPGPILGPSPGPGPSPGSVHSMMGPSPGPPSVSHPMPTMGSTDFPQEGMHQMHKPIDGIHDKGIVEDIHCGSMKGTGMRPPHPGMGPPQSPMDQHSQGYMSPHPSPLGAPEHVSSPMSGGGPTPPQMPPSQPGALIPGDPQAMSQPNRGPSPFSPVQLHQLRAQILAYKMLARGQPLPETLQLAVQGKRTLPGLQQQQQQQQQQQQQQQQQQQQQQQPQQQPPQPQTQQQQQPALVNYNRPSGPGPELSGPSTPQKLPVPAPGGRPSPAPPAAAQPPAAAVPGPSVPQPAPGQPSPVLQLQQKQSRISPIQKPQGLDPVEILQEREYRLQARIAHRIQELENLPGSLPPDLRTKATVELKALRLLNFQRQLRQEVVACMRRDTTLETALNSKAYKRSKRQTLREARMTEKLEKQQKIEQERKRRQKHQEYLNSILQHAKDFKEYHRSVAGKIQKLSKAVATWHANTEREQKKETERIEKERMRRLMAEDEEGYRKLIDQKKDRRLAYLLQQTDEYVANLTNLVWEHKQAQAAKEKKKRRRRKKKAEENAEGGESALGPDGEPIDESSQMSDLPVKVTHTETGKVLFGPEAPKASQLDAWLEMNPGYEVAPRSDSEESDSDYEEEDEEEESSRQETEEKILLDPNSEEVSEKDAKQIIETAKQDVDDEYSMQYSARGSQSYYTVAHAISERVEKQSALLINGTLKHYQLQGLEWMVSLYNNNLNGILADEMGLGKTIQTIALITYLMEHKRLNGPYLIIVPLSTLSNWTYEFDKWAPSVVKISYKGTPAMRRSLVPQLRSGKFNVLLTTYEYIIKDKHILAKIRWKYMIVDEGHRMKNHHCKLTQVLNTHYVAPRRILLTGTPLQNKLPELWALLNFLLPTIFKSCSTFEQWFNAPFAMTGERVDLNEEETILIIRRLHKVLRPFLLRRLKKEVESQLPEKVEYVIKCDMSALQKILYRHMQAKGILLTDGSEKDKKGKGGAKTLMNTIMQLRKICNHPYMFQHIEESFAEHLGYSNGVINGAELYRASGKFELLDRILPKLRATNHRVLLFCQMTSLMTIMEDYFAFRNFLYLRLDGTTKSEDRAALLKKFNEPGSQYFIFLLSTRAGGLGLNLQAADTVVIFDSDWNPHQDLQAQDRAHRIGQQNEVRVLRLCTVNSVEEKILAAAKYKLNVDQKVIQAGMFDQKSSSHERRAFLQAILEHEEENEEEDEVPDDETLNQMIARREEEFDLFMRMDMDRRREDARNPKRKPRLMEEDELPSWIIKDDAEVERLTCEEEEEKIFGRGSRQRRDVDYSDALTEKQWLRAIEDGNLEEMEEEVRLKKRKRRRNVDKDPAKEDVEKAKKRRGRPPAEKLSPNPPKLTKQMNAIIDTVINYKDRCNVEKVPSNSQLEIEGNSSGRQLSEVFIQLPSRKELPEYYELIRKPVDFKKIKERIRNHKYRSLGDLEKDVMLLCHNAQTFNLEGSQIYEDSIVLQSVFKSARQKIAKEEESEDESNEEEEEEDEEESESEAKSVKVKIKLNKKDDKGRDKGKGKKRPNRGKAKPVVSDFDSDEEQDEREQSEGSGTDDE
measurementDescription: ATPase catalytic activity assay of BRM (ADP-Glo)
Type: biochemical
assaySetup: 30 nM BRM, 400 μM ATP, read-out: BRM IC50 (μM)*

{"molecule": "COc1cccc(-c2csc(NC(=O)CNC(=O)c3ccc4c(c3)C(C)(C#N)CCO4)n2)c1 (stereo in doubt) [Compound 431]", "systemUnderTest": "BRM (Homo sapiens)", "IC50": "< 0.1 µM"}
{"molecule": "C[C@H](NC(=O)c1ccc2c(c1)C(C)(CO)CC2)C(=O)Nc1nc(-c2cccc(N3CCC3)c2)cs1 (stereo in doubt) [Compound 414]", "systemUnderTest": "BRM (Homo sapiens)", "IC50": "0.1 to 1 µM"}
{"molecule": "C[C@@H]1CN(c2cccc(-c3csc(NC(=O)CNC(=O)c4cccc([C@H]5COC[C@H]5O)c4)n3)c2)C[C@H](C)O1 (relative stereo) [Compound 424]", "systemUnderTest": "BRM (Homo sapiens)", "IC50": "0.1 to 1 µM"}
{"molecule": "C[C@@H]1CN(c2cccc(-c3csc(NC(=O)CNC(=O)c4ccc5c(c4)C(C)(C#N)CO5)n3)c2)C[C@H](C)O1 (stereo in doubt) [Compound 417]", "systemUnderTest": "BRM (Homo sapiens)", "IC50": "< 0.1 µM"}
{"molecule": "C[C@@H]1CN(c2cccc(-c3csc(NC(=O)[C@H](C)NC(=O)c4ccnc(C(C)(C)C)c4)n3)c2)C[C@H](C)O1 [Compound 435]", "systemUnderTest": "BRM (Homo sapiens)", "IC50": "0.1 to 1 µM"}
{"molecule": "CC1(C#N)CCOc2ccc(C(=O)NCC(=O)Nc3nc(-c4cccc([C@@H]5CC5(F)F)c4)cs3)cc21 (stereo in doubt) [Compound 429]", "systemUnderTest": "BRM (Homo sapiens)", "IC50": "< 0.1 µM"}
{"molecule": "CC1(C#N)CCOc2ccc(C(=O)NCC(=O)Nc3nc(-c4cccc(N5CCC5)c4)cs3)cc21 (stereo in doubt) [Compound 416]", "systemUnderTest": "BRM (Homo sapiens)", "IC50": "< 0.1 µM"}
{"molecule": "C[C@@H]1CN(c2cccc(-c3csc(NC(=O)CNC(=O)c4ccc5c(c4)[C@](C)(O)COC5)n3)c2)C[C@H](C)O1 [Compound 438]", "systemUnderTest": "BRM (Homo sapiens)", "IC50": "0.1 to 1 µM"}
{"molecule": "CC1(C#N)CCOc2ccc(C(=O)NCC(=O)Nc3nc(-c4cccc(C5COC5)c4)cs3)cc21 (stereo in doubt) [Compound 423]", "systemUnderTest": "BRM (Homo sapiens)", "IC50": "< 0.1 µM"}
{"molecule": "C[C@@H]1CN(c2cccc(-c3csc(NC(=O)CNC(=O)c4cccc([C@@]5(C)COC[C@@H]5O)c4)n3)n2)C[C@H](C)O1 (stereo in doubt) [Compound 413]", "systemUnderTest": "BRM (Homo sapiens)", "IC50": "0.1 to 1 µM"}
{"molecule": "CC1(C#N)CCOc2ccc(C(=O)NCC(=O)Nc3nc(-c4cccc(C(F)F)n4)cs3)cc21 (stereo in doubt) [Compound 430]", "systemUnderTest": "BRM (Homo sapiens)", "IC50": "0.1 to 1 µM"}
{"molecule": "C[C@@H]1CN(c2cccc(-c3csc(NC(=O)CNC(=O)c4ccc5c(c4)C(C)(C#N)COC5)n3)n2)C[C@H](C)O1 (stereo in doubt) [Compound 421]", "systemUnderTest": "BRM (Homo sapiens)", "IC50": "1 to 5 µM"}
{"molecule": "CC1(C#N)CCOc2ccc(C(=O)NCC(=O)Nc3nc(-c4cccc(-c5ccncc5)c4)cs3)cc21 (stereo in doubt) [Compound 440]", "systemUnderTest": "BRM (Homo sapiens)", "IC50": "< 0.1 µM"}
{"molecule": "CO[C@H]1C[C@@](F)(c2cccc(C(=O)NCC(=O)Nc3nc(-c4cccc(N5C[C@@H](C)O[C@@H](C)C5)n4)cs3)c2)C1 [Compound 426]", "systemUnderTest": "BRM (Homo sapiens)", "IC50": "0.1 to 1 µM"}
{"molecule": "C[C@@H]1CN(c2cccc(-c3csc(NC(=O)CNC(=O)c4cccc(C5(F)CCOC5)c4)n3)n2)C[C@H](C)O1 (stereo in doubt) [Compound 441]", "systemUnderTest": "BRM (Homo sapiens)", "IC50": "0.1 to 1 µM"}
{"molecule": "COC[C@H](NC(=O)c1ccnc(C(C)(C)C)c1)C(=O)Nc1nc(-c2cccc(N3C[C@@H](C)O[C@@H](C)C3)c2)cs1 [Compound 436]", "systemUnderTest": "BRM (Homo sapiens)", "IC50": "0.1 to 1 µM"}
{"molecule": "C[C@@H]1CN(c2cccc(-c3csc(NC(=O)CNC(=O)c4cncc(C(C)(C)C)c4)n3)c2)C[C@H](C)O1 [Compound 443]", "systemUnderTest": "BRM (Homo sapiens)", "IC50": "< 0.1 µM"}
{"molecule": "C[C@@H]1CN(c2cccc(-c3csc(NC(=O)[C@H](CO)NC(=O)c4ccnc(C(C)(C)C)c4)n3)c2)C[C@H](C)O1 [Compound 434]", "systemUnderTest": "BRM (Homo sapiens)", "IC50": "0.1 to 1 µM"}
{"molecule": "C[C@@H]1CN(c2cccc(-c3csc(NC(=O)CNC(=O)c4ccc5c(c4)C(C#N)(CO)CCO5)n3)c2)C[C@H](C)O1 (some centres unmarked) [Compound 444]", "systemUnderTest": "BRM (Homo sapiens)", "IC50": "< 0.1 µM"}
{"molecule": "C[C@@H]1CN(c2cccc(-c3csc(NC(=O)CNC(=O)c4cccc(C5(C#N)COC5)c4)n3)c2)C[C@H](C)O1 [Compound 418]", "systemUnderTest": "BRM (Homo sapiens)", "IC50": "< 0.1 µM"}
{"molecule": "C[C@@H]1CN(c2cccc(-c3csc(NC(=O)CNC(=O)c4ccnc(C(C)(C#N)CO)c4)n3)c2)C[C@H](C)O1 (stereo in doubt) [Compound 427]", "systemUnderTest": "BRM (Homo sapiens)", "IC50": "0.1 to 1 µM"}
{"molecule": "CC1(C#N)CCOc2ccc(C(=O)NCC(=O)Nc3nc(-c4cccc([C@H]5CC5(F)F)c4)cs3)cc21 (stereo in doubt) [Compound 428]", "systemUnderTest": "BRM (Homo sapiens)", "IC50": "< 0.1 µM"}
{"molecule": "CC1(C#N)CCOc2ccc(C(=O)NCC(=O)Nc3nc(-c4cccc(C(F)F)c4)cs3)cc21 (stereo in doubt) [Compound 442]", "systemUnderTest": "BRM (Homo sapiens)", "IC50": "< 0.1 µM"}
